Test: NCI Yeast Anticancer Drug Screen. Data for the cln2 rad14 strain (AID 165);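 also: 0% = growth equal to vehicle treated cultures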
Settings: S. cerevisiae cln2 rad14 strain, at 50.0 µM, stronger effect = higher value
This is part of a sample that, as a whole, favours compounds with a hit. Of some 79,000 tested, about 15% had one in any assay.
ASSAY_METRIC: growth inhibition (%)
Report only the number, with the unit % understood.

[[record]]
compound = "O=C1CN(/N=C/c2ccc(-c3ccc(Cl)c(Cl)c3)o2)C(=O)N1"
result_number = 3.2

[[record]]
compound = "COc1ccc(C2OCCCO2)cc1"
result_number = -34.4

[[record]]
compound = "Nc1cccc(N)n1"
result_number = 5.7

[[record]]
compound = "CC1(C)C(c2ccccc2)=NN(O)c2ccccc21"
result_number = 15.4

[[record]]
compound = "O=C1c2ccccc2C2CC1c1ccccc12 (configuration not stated)"
result_number = -7.7

[[record]]
compound = "CCCNc1ccc2c(c1)C(O)c1ccccc1-2 (configuration not stated)"
result_number = 2.4

[[record]]
compound = "N=C(N)Sc1cc(O)c2ccccc2c1O"
result_number = -45.8

[[record]]
compound = "CCCCCCCCCCCCCCCC(=O)Nc1ccn(C2OC(CO)C(O)C2O)c(=O)n1 (configuration not stated)"
result_number = 10.1


For the compound shown here, `C=COS(=O)O` , give the reported growth inhibition. -6.7

What growth inhibition value was documented for this compound, `CN(Cc1ccccc1)c1ccc(C(=O)O)cc1` ? -19

Quick one: growth inhibition of `Nc1nc(-c2ccccc2)nc2[nH]ncc12` ? -10.2

Sample `Cc1cc(Cl)c(Cl)cc1NC(=O)c1ccc(Cl)c(Cl)c1` — what was its growth inhibition? -3.25

# growth inhibition lookup, item `Cc1nc2ccccc2c(=O)n1NC(=S)Nc1cccc(Cl)c1` -12.8

Which measured growth inhibition value corresponds to `CCCCCCCCCCC#N` ? 14.6

====

Test: NCI Yeast Anticancer Drug Screen. Data for the bub3 strain (AID 167)
Conditions: S. cerevisiae bub3 mutant strain, at 50.0 µM, stronger effect = higher value
About 79,000 compounds went through this panel and 15% of them were active in at least one assay; those are over-represented in the sample as a whole.
Would you please tag the item Yes when its growth inhibition is 10% or above, and No when it is below?

[[record]]
molecule = "CN(C)CCNC(=O)C(C)(C)Oc1ccc(C(=O)c2ccc(Cl)cc2)cc1Cl"
category_label = "No"

[[record]]
molecule = "Cc1c2ccccc2cc2c1ccc1c(Br)cccc12"
category_label = "Yes"


Test whether the molecule `CCOC(=O)/C(=C\c1ccccc1)c1nc2ccccc2[nH]1` records growth inhibition of 10% or higher. No

Can `Cc1cc(C)c(C(=O)/C=C(\N)C(=O)c2c(C)cc(C)cc2C)c(C)c1` be said to have growth inhibition at or above 10%? Yes

Hello, I need to know if `O=C1CN(Cc2ccc(Cl)cc2)CC(=O)N2CCCN12` has measured growth inhibition not below 10%. Thanks! Yes

Answer whether growth inhibition of CC(=O)OC(C(=O)Nc1ccc(Br)cc1)c1ccccc1 (stereo unspecified) is greater than or equal to 10%. Yes

====

Assay: NCI Yeast Anticancer Drug Screen. Data for the rad50 strain (AID 155);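 also: 0% = growth of vehicle-only cultures of the same strain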
Settings: S. cerevisiae rad50 strain growth inhibition; at 50.0 µM; stronger effect = higher value
The panel holds about 79,000 compounds, 15% with a hit somewhere; the sample as a whole holds those more often.
ASSAY_METRIC: growth inhibition (%)
Enter your answer as a number in %; do not include the unit.

Reference set (5 entries):
[[record]]
compound = "[N-]=[N+]=Nc1ncnc2c1sc(=S)n2-c1ccccc1"
assay_metric = "growth inhibition"
result_number = -6.65

[[record]]
compound = "CCN(CC)CCN1C(=O)c2cccc3c(N)c(OC)cc(c23)C1=O"
assay_metric = "growth inhibition"
result_number = 47.5

[[record]]
compound = "CCOC(=O)C(CC)N1C(=O)c2ccccc2S1(=O)=O (stereo unspecified)"
assay_metric = "growth inhibition"
result_number = -16.1

[[record]]
compound = "ClCc1c(Cl)c(Cl)c(CCl)c(Cl)c1Cl"
assay_metric = "growth inhibition"
result_number = 2.75

[[record]]
compound = "CCO/N=C(/CNC(=O)Oc1ccccc1)c1ccccc1"
assay_metric = "growth inhibition"
result_number = 3.15


Recorded growth inhibition for `NNc1nnc(NN)c2ccccc12` , please? 1.75

Which growth inhibition value is on record for `COc1ccc(NC(=O)Oc2cccc(NC(C)=O)c2)c(OC)c1` ? 13.8

Give the measured growth inhibition of `COC(=O)C1=CO[C@@H](C)[C@@H]2CN3CCc4c([nH]c5ccc(OC)cc45)[C@@H]3C[C@H]12` . 8.9

So what does the record say about growth inhibition for `CCC(=O)OC1=CC(=O)c2ccccc2C1=O` ? 11.6

Param item = CC(=O)C1CCC2C3CC=C4CC(O)CCC4(C)C3CCC12C (stereo unspecified) ; retrieve measured growth inhibition. 26.4

Query (compound): `Nc1nc(N)c2ccccc2n1` ; field requested: growth inhibition -11.3

Value lookup for growth inhibition; key = `Cc1ccc(C(=O)N/N=C/c2ccc(N(C)C)cc2Cl)cc1` 39.5

State the recorded growth inhibition for this entry: `COC(=O)/C(C#N)=C(C)/C=C/c1ccc(OC)cc1` 22.6

Values were extracted from PubChem BioAssay (NCI).
